Listed next: entries and their corresponding pKa.
assayMethodText: Ionization constants (pKa), determined spectrophotometrically
Type: physicochemical
appliedConditions: phosphate and/or acetate buffers, protonation, read-out: pKa (protonation)

compound	pKa
OC[C@H]1O[C@@H](n2ccn3c4ncnc-4cnc23)[C@H](O)[C@@H]1O [Compound 5]	6.15
c1cn2c(n1)ncc1nc[nH]c12 [Compound 2, N^2,3-etheno-2-aminopurine]	5
OC[C@H]1O[C@@H](n2ccc3c2ncn2ccnc32)[C@H](O)[C@@H]1O [Compound 6, 1,N^6-etheno-tubercidine]	5.2
c1cn2cc3nc[nH]c3nc2n1 [Compound 1, 1,N^2-etheno-2-aminopurine]	5.6

* * *

assayMethodText: Ionization constants (pKa), determined spectrophotometrically
Format: physicochemical
appliedConditions: phosphate and/or acetate buffers, acidic dissociation, read-out: pKa (acidic dissociation of the imidazole proton)
endpointName: pKa

testSmiles	endpointName	recordedMeasurement
c1cn2cc3nc[nH]c3nc2n1	pKa	8.2
